experimental target: AgHof1
assay text: SPOT peptide array binding signal intensity (averaged, normalized) (arbitrary units (background-subtracted, floor 0; scale differs between SH3 domains)); higher = stronger binding of the SH3 domain to the peptide
Binary call on SPOT peptide array binding signal intensity: Met from 60 upward, Not met beneath that.

binder=PHNPSPFFPPPDFND label="Not met"
binder=NFKRLLPRDPSEKSS label="Not met"
binder=LKRITSPPLPPRADS label=Met
binder=PLRRTVMSLPGNHDI label="Not met"
binder=FPGKKSPRLPHRNKK label="Not met"
binder=LLLLFVPDSPYDPAI label="Not met"
binder=AAAPKHAPPPVPNET label="Not met"
binder=GRLRPKRIAPWHLIQ label="Not met"
binder=FSRRQSMDIPSKNRN label=Met
binder=MAMRPIPPLPTESEY label=Met
binder=KKAPPPVVKPKPRNF label=Met
binder=STKKPRPPVKSKPKH label="Not met"
binder=FIRKRAPTPPAPSRS label=Met
binder=RSRRSSFAYPQQVAI label="Not met"
binder=SRQAIPPPVPNRPGG label="Not met"
